Measured TGI, listed per entry.
System: HCC 2998
Test: Cytotoxicity against human HCC2998 cells
Type: functional
Conditions: read-out: Log TGI (converted)
// return numeric value only (unit: µM, not printed)

Look over these answered cases.
INSERT INTO results (molecule, property_measured, measured_value) VALUES
  ('CC(=O)C1=CC[C@H]2[C@]3(C)CC[C@H]4C(C)(C)CCC[C@]4(C(=O)O)[C@H]3CC(=O)[C@]2(C)[C@H]1C=O', 'TGI', 3.02),
  ('CC(=O)O[C@H]1C[C@H]2[C@@](C)(CC[C@H]3C(C)(C)CCC[C@@]32CO)[C@@H]2CC=C(C(C)=O)[C@H](C=O)[C@@]12C', 'TGI', 2.19),
  ('CC(=O)O[C@@H]1C[C@H]2[C@]3(C)CC[C@H]4C(C)(C)CCC[C@]4(C)[C@H]3C[C@H](O)[C@]2(C)[C@@H](C=O)[C@@H]1C(C)=O', 'TGI', 2.95);

In the following, a different molecule is considered.
# input Which TGI is reported for this molecule? CC1OC(=O)[C@H]2[C@H]1[C@@H](O)C[C@H]1[C@]3(C)CC[C@H]4C(C)(C)CCC[C@]4(C)[C@H]3C[C@@H](O)[C@]21C (some centres undefined)
# output 29.5
